Target: dopamine transporters (DAT) (Rattus norvegicus)
Sequence (P23977 whole entry): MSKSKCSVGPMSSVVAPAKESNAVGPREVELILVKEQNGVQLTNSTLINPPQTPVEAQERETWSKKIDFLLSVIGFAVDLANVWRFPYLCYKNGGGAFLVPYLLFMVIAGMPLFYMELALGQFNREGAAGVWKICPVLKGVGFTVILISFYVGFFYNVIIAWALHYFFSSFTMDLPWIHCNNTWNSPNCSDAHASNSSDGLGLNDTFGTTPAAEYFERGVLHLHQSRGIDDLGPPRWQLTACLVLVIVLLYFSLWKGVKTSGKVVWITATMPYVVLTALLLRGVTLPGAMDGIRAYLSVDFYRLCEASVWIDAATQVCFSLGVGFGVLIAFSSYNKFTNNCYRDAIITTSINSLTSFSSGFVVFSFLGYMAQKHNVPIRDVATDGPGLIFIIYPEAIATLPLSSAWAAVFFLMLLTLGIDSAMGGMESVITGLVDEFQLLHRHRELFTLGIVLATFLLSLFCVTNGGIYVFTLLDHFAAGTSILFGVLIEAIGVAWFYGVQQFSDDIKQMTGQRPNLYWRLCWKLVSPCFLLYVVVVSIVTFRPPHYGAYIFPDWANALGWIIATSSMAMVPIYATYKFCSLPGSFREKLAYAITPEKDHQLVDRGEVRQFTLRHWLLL
Assay: Release assay at DAT, [3H]MPP+ preloaded rat brain synaptosomes
Type: biochemical
Details: (EC50 at DAT)^−1/(EC50 at SERT)^−1; higher value indicates greater DAT selectivity
List of DAT/SERT ratio values.
Readout: DAT/SERT ratio

INSERT INTO results (compound, system_under_test, readout, val) VALUES
  ('CNC(C)Cc1ccc2c(c1)OCO2 (single isomer, unassigned; (+)) [(+)-MDMA, (+)-3,4-methylenedioxymethamphetamine]', 'dopamine transporters (DAT) (Rattus norvegicus)', 'DAT/SERT ratio', 0.6),
  ('Cc1ccc([C@H]2OC(N)=N[C@H]2C)cc1 (relative stereo) [Cis-DMAR, cis-4,4′-dimethylaminorex]', 'dopamine transporters (DAT) (Rattus norvegicus)', 'DAT/SERT ratio', 1.6),
  ('Cc1ccc([C@@H]2OC(N)=N[C@H]2C)cc1 (relative stereo) [Trans-DMAR, trans-4,4′-dimethylaminorex]', 'dopamine transporters (DAT) (Rattus norvegicus)', 'DAT/SERT ratio', 2.5),
  ('C[C@@H]1N=C(N)O[C@@H]1c1ccc2c(c1)OCO2 (racemic) [Cis-MDMAR]', 'dopamine transporters (DAT) (Rattus norvegicus)', 'DAT/SERT ratio', 4.3),
  ('C[C@@H]1N=C(N)O[C@H]1c1ccc2c(c1)OCO2 (racemic) [Trans-MDMAR]', 'dopamine transporters (DAT) (Rattus norvegicus)', 'DAT/SERT ratio', 2.0);
